All values here come from patent US20030158199A1.

Molecular target: KDR (Homo sapiens)
Construct: GST-KDR (aa807-1356); GST (N)
Assay: RTK ELISA, recombinant kinase domain, KDR
Conditions: GST-KDR (aa807-1356) expressed in baculovirus infected insect cells
Counter-ions that a name gives are not always drawn.
ENDPOINT NAME: pIC50
Answers are plain numbers, as −log10 of the molar value.

c1ccc(CCNc2nc(-c3ccccn3)cs2)cc1 [Number 35, Hydrobromide]    6.00

# next molecule below
Ask: Which pIC50 value belongs to c1ccc(Nc2nc(-c3ccc(N4CCCC4)cc3)cs2)cc1 [Number 8, Hydrobromide] ?
Reply: 5.60

###

Target: KDR (Homo sapiens, UniProt P35968)
Construct: GST-KDR (aa807-1356); GST (N)
Sequence (P35968 807-1356): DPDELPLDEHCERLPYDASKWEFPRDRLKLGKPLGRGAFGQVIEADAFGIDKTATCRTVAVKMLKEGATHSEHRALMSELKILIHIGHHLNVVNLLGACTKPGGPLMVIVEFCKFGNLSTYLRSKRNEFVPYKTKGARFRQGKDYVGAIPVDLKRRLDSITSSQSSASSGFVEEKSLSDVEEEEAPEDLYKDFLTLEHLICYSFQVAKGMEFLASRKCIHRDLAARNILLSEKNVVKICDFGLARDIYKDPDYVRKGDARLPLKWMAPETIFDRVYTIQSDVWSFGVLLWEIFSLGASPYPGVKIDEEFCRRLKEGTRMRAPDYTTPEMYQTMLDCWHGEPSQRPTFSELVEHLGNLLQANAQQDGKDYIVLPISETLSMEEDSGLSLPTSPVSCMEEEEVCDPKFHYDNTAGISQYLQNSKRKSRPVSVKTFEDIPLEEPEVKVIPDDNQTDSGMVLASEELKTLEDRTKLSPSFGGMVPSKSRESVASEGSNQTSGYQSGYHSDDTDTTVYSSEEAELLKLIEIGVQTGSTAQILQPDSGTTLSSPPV
Experiment: RTK ELISA, recombinant kinase domain, KDR
Conditions: GST-KDR (aa807-1356) expressed in baculovirus infected insect cells
Counter-ions that a name gives are not always drawn.
ENDPOINT NAME: IC50 (µM)
Answers are plain numbers, in µM.

// below: answered molecules
CCN(CC)c1ccc(-c2csc(Nc3cccnc3)n2)cc1 [Number 30]    3
CCN(CC)c1ccc(-c2csc(Nc3cccc(C(F)(F)F)c3)n2)cc1 [Number 32, Hydrobromide]    5
CCN(CC)c1ccc(-c2csc(Nc3ccccc3)n2)cc1 [Number 26, Hydrobromide]    2
CCN(CC)c1ccc(-c2csc(N)n2)cc1 [Number 23, Hydrobromide]    2
CCN(CC)c1ccc(-c2csc(NC)n2)cc1 [Number 25, Hydrobromide]    5

Batch request: IC50 per item, same order as input.
1. O=C(O)c1ccc(Nc2nc(-c3ccc(N4CCCC4)cc3)cs2)cc1 [Number 20, Hydrobromide]
2. CNc1nc(-c2cnn(-c3ccccc3)c2C)cs1 [Number 34, Hydrochloride]
3. CCN(CC)c1ccc(-c2coc(N)n2)cc1 [Number 24, Hydrobromide]

Reply:
[1, 1.5, 1.5]

Batch request: IC50 per item, same order as input.
1. c1cncc(Nc2nccs2)c1 [Number 4, Hydrochloride]
2. Nc1nc(-c2ccc(N3CCCC3)cc2)cs1 [Number 5, Hydrobromide]

Reply:
1. 5
2. 5

###

Molecular target: Tie-2 (Homo sapiens, UniProt Q02763)
Construct: GST-Tie2/Tek (aa 771-1124); GST (N)
Sequence (Q02763 771-1124): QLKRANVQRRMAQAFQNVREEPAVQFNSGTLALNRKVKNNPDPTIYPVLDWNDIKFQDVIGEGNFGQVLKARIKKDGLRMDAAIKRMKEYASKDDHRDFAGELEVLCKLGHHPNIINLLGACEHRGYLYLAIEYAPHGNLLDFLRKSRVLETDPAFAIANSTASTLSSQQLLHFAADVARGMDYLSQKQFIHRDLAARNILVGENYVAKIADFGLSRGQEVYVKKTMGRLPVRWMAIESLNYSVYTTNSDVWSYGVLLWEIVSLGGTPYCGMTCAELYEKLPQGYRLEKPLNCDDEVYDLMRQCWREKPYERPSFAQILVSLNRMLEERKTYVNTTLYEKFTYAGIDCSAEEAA
Experiment: RTK ELISA, recombinant kinase domain, Tie-2
Conditions: GST-Tie2/Tek (aa 771-1124) expressed in baculovirus infected insect cells
Counter-ions that a name gives are not always drawn.
Can you tell me pIC50 for the items I'm about to list?
Numbers only, as −log10 of the molar value.

CN(c1ccccc1)c1nc(-c2ccc(N3CCCC3)cc2)cs1 [Number 9, Hydrobromide]    5.60
CNc1nc(-c2ccc(N3CCCC3)cc2)cs1 [Number 7, Hydrobromide]    5.52
Cc1nc(-c2ccc(N3CCCC3)cc2)cs1 [Number 21, Hydrobromide]    5.60
c1ccc(CCNc2nc(-c3ccccn3)cs2)cc1 [Number 35, Hydrobromide]    6.00
Nc1nc(-c2ccc(N3CCCC3)cc2)cs1 [Number 5, Hydrobromide]    5.60

Batch request: pIC50 per item, same order as input.
1. CCN(CC)c1ccc(-c2csc(C)n2)cc1 [Number 33, Hydrobromide]
2. CCN(CC)c1ccc(-c2csc(N)n2)cc1 [Number 23, Hydrobromide]
3. CNc1nc(-c2cnn(-c3ccccc3)c2C)cs1 [Number 34, Hydrochloride]
4. O=[N+]([O-])c1ccc(Nc2nc(-c3ccc(N4CCCC4)cc3)cs2)cc1 [Number 17, Dihydrobromide]
5. CCN(CC)c1ccc(-c2csc(Nc3ccccc3)n2)cc1 [Number 26, Hydrobromide]

Reply:
[5.30, 5.30, 5.82, 5.70, 5.70]

Batch request: pIC50 per item, same order as input.
1. c1ccc(-c2ccc(-c3csc(Nc4cccnc4)n3)s2)nc1 [Number 37, Hydrobromide]
2. CCN(CC)c1ccc(-c2csc(NC)n2)cc1 [Number 25, Hydrobromide]
3. CCN(CC)c1ccc(-c2csc(Nc3cccc(C(F)(F)F)c3)n2)cc1 [Number 32, Hydrobromide]
4. FC(F)(F)c1cccc(Nc2nc(-c3ccc(N4CCCC4)cc3)cs2)c1 [Number 19, Hydrobromide]
5. c1ccc(CNc2nc(-c3ccc(N4CCCC4)cc3)cs2)cc1 [Number 10, Hydrobromide]
6. c1ccc(Nc2nc(-c3ccc(N4CCCC4)cc3)cs2)cc1 [Number 8, Hydrobromide]

Reply:
[5.60, 6.00, 5.52, 5.70, 5.30, 5.30]
